Origin of values: paper PMC5355037

Biological target: BRAF (V600E) (Homo sapiens, UniProt P15056, V600E)
Sequence (P15056 whole entry V600E): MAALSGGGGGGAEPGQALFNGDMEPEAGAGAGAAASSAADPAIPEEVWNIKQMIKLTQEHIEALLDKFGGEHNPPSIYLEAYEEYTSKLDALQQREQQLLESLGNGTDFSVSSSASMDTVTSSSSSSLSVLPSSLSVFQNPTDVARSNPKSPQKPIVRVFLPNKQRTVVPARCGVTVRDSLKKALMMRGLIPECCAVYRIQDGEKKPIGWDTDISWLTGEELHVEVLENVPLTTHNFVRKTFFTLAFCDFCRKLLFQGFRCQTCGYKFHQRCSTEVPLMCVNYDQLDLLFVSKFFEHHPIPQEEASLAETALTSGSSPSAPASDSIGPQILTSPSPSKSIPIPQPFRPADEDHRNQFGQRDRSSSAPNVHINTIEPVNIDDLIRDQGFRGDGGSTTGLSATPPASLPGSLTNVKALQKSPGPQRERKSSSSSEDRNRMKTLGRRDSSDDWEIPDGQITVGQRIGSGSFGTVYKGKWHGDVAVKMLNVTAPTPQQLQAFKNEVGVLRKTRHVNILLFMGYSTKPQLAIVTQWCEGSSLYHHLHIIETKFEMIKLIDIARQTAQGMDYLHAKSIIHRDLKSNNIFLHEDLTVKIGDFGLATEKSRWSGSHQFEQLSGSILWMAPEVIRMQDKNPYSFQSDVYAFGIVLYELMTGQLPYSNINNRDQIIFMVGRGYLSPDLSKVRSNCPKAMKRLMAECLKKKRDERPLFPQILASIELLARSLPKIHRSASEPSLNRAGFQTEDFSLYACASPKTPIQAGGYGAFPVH
Experiment: in vitro kinase assay, percent control and binding affinity
Conditions: Kinase Target BRAF (V600E)
pKd: −log10 of the molar value.
property label: pKd

- COC(=O)Nc1nc2ccc(C(=O)c3ccccc3)cc2[nH]1: 6.68

====

Biological target: BRAF (Homo sapiens)
Sequence (P15056 whole entry): as the sequence (P15056 whole entry V600E) above, with E600V counted along it
property label: Kd (µM)

- COC(=O)Nc1nc2ccc(C(=O)c3ccccc3)cc2[nH]1: 0.23
